Molecular target: human ether-à-go-go-related gene (hERG) potassium channel (human, UniProt Q12809);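 note: peak tail current of the secondary pulse compared with the same well before compound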
Sequence (Q12809 whole entry, looked up): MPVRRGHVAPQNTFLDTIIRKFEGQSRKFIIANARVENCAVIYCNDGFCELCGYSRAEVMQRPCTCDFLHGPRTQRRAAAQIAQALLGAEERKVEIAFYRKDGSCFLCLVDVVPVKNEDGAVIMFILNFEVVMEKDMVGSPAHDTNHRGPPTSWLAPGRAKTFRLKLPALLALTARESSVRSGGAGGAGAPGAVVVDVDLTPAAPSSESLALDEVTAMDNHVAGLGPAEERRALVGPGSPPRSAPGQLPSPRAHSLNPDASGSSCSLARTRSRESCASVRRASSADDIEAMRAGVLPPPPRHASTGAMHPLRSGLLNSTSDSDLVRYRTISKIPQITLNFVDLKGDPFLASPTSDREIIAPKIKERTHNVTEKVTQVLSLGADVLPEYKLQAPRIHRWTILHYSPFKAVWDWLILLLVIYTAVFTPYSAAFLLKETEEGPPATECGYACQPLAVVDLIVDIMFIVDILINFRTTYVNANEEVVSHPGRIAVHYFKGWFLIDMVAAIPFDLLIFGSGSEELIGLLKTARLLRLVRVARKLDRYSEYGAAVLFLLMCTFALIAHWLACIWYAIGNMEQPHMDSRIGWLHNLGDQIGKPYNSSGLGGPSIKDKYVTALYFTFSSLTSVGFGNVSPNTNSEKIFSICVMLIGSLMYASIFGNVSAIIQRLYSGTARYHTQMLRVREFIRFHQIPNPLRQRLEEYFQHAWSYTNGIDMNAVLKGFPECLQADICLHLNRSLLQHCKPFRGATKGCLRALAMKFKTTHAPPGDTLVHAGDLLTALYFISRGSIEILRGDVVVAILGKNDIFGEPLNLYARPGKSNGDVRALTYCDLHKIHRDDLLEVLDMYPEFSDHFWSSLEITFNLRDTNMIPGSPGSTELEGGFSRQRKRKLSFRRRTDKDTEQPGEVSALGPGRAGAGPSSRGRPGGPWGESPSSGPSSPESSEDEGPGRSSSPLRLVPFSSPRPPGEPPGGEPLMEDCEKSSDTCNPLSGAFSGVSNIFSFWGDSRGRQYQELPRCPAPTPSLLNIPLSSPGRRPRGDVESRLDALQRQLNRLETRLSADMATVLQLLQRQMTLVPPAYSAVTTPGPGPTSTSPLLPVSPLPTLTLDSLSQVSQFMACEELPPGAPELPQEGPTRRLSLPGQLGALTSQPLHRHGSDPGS
Test: primary screen, population patch clamp on CHO cells stably expressing hERG; higher = less effect of the substance
The campaign covered roughly 310,000 compounds. About 14,000 (4.5%) showed an effect of 50% or more. Effects have a minus sign here. For the sample, strong results were picked, then their nearest neighbours and some compounds at random.
Experimental readout: hERG current change (%, negative = inhibition) at 10uM (%)
Report only the number, with the unit % understood.

Suppose we examine the compound COc1ccc(S(=O)(=O)N2CCCCCC2)cc1C(=O)N(C)Cc1ccc(Cl)cc1Cl ; what hERG current change (%, negative = inhibition) at 10uM value has been reported?
-23.1

Suppose we examine the compound Cc1cccc(C)c1NC(=O)CN(C)C(=O)c1cc([N+](=O)[O-])ccc1N1CCOCC1 ; what hERG current change (%, negative = inhibition) at 10uM value has been reported?
24.1

Suppose we examine the compound Cc1c(C)n(CCc2ccccc2)c2ncnc(NCCCO)c12 ; what hERG current change (%, negative = inhibition) at 10uM value has been reported?
-40.1

Suppose we examine the compound CCN1CCN(S(=O)(=O)c2ccc(Cl)c(C(=O)N(C)Cc3ccc(F)cc3)c2)CC1 ; what hERG current change (%, negative = inhibition) at 10uM value has been reported?
-25.1

Suppose we examine the compound CCOC(=O)c1cc(-c2ccc(N3CCOCC3)cc2)nn1-c1ccccc1C(=O)O ; what hERG current change (%, negative = inhibition) at 10uM value has been reported?
5.59

Suppose we examine the compound Cc1c(C)n(CCc2ccccc2)c2ncnc(NCCCN(C)C)c12 ; what hERG current change (%, negative = inhibition) at 10uM value has been reported?
-58

Suppose we examine the compound Cc1c(C)n(CCCN(C)C)c2ncnc(Nc3ccccc3)c12 ; what hERG current change (%, negative = inhibition) at 10uM value has been reported?
-29.3

Suppose we examine the compound O=C1CCCN1CC1CCCN(Cc2nc(COc3ccccc3)no2)C1 (stereo not shown) ; what hERG current change (%, negative = inhibition) at 10uM value has been reported?
28.6

Suppose we examine the compound Cc1cccc(NC(=O)c2ccc(S(=O)(=O)N3CCCCCC3)cc2)n1 ; what hERG current change (%, negative = inhibition) at 10uM value has been reported?
-4.07

Suppose we examine the compound COc1cc(C(=O)NCCC(c2ccccc2)c2ccccc2)cc(OC)c1OC ; what hERG current change (%, negative = inhibition) at 10uM value has been reported?
0.15

Suppose we examine the compound CCN1CCN(c2nc(-c3ccncc3)nc3ccccc23)CC1 ; what hERG current change (%, negative = inhibition) at 10uM value has been reported?
-77.8

Suppose we examine the compound COc1ccc(Nc2ncnc3c2c(C)c(C)n3CCCN(C)C)cc1 ; what hERG current change (%, negative = inhibition) at 10uM value has been reported?
-32.7

Suppose we examine the compound CN(CCOc1ccccc1)C(=O)c1cc([N+](=O)[O-])ccc1N1CCOCC1 ; what hERG current change (%, negative = inhibition) at 10uM value has been reported?
-27.3

----------
Molecular target: human ether-à-go-go-related gene (hERG) potassium channel (human, UniProt Q12809);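 note: peak tail current of the secondary pulse compared with the same well before compound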
Assay: primary screen, population patch clamp on CHO cells stably expressing hERG; higher = less effect of the substance
In all, about 310,000 compounds went through this assay and about 14,000 (4.5%) showed an effect of 50% or more. The effect is printed as a negative number. Only a selection was taken, and strong results are over-represented in it overall.
Experimental readout: hERG current change (%, negative = inhibition) at 10uM (%)
Report only the number, with the unit % understood.

Suppose we examine the compound O=C(C1=C[C@H](c2ccc(Br)cc2)C[C@H](OCCCCO)O1)N1CCN(Cc2ccccc2)CC1 ; what hERG current change (%, negative = inhibition) at 10uM value has been reported?
-80.8

Suppose we examine the compound C/C(=N\NC(=O)Cc1ccccc1)c1cccs1 ; what hERG current change (%, negative = inhibition) at 10uM value has been reported?
-4.86

Suppose we examine the compound C/C(=N\NC(=O)CN1CCN(Cc2ccccc2)CC1)c1cccs1 ; what hERG current change (%, negative = inhibition) at 10uM value has been reported?
-50.9

Suppose we examine the compound Cl.O=C(Nc1ccccc1)OCC(CN1CCCCC1)OC(=O)Nc1ccccc1 (stereo not drawn) ; what hERG current change (%, negative = inhibition) at 10uM value has been reported?
-60.1

Suppose we examine the compound COc1cc(OC)cc(-c2nnc(SCC(=O)N3CCOCC3)o2)c1 ; what hERG current change (%, negative = inhibition) at 10uM value has been reported?
9.82

Suppose we examine the compound C/C(=N/NC(=O)CN1CCN(Cc2ccccc2)CC1)c1ccc([N+](=O)[O-])cc1 ; what hERG current change (%, negative = inhibition) at 10uM value has been reported?
-76.5

Suppose we examine the compound Cc1ccc(C(=O)C(OC(=O)CNC(=O)c2ccc(Cl)cc2)c2ccccc2)cc1 (stereo not drawn) ; what hERG current change (%, negative = inhibition) at 10uM value has been reported?
2.15

Suppose we examine the compound CC(=O)Nc1ccc(S(=O)(=O)NCCCN2CCOCC2)cc1 ; what hERG current change (%, negative = inhibition) at 10uM value has been reported?
16

Suppose we examine the compound O=C(C1=C[C@@H](c2ccc(C(F)(F)F)cc2)C[C@@H](OCCCCO)O1)N1CCCCCCC1 ; what hERG current change (%, negative = inhibition) at 10uM value has been reported?
-51.3

Suppose we examine the compound Cc1cc(OC(=O)c2cccs2)ccc1C(C)C ; what hERG current change (%, negative = inhibition) at 10uM value has been reported?
12.1

Suppose we examine the compound C/C(=N\NC(=O)c1ccc(CN2CCOCC2)cc1)c1ccc([N+](=O)[O-])cc1 ; what hERG current change (%, negative = inhibition) at 10uM value has been reported?
-7.18

Suppose we examine the compound Cc1cc(C)c(NC(=O)C2CCCN2CCO)c(C)c1 (stereo not drawn) ; what hERG current change (%, negative = inhibition) at 10uM value has been reported?
-14.5

Suppose we examine the compound CCN1C(=O)S/C(=C/c2ccc(Oc3ccc([N+](=O)[O-])cn3)c(OC)c2)C1=O ; what hERG current change (%, negative = inhibition) at 10uM value has been reported?
9.24

Suppose we examine the compound CCC1CCCCN1C(=O)C(=O)c1cn(CC(=O)N(CC)CC)c2ccccc12 (stereo not drawn) ; what hERG current change (%, negative = inhibition) at 10uM value has been reported?
21

Suppose we examine the compound Cc1cc(C)c(NC(=O)C2CCCN2CCOC(=O)c2ccccc2)c(C)c1.Cl (stereo not drawn) ; what hERG current change (%, negative = inhibition) at 10uM value has been reported?
-26

Suppose we examine the compound CC(OC(=O)CCc1nc2ccccc2[nH]c1=O)c1ccccc1 (stereo not drawn) ; what hERG current change (%, negative = inhibition) at 10uM value has been reported?
-5.1

Suppose we examine the compound C=CCOC(=O)C1=C[C@@H](c2ccccc2)[C@H](CCCO)[C@@H](OCC)O1 ; what hERG current change (%, negative = inhibition) at 10uM value has been reported?
-9.65

Suppose we examine the compound Cc1nn(Cc2ccccc2)c(Cl)c1C(=O)OCC(=O)NC(=O)NC12CC3CC(CC(C3)C1)C2 ; what hERG current change (%, negative = inhibition) at 10uM value has been reported?
11.5

----------
Target: human ether-à-go-go-related gene (hERG) potassium channel (human, UniProt Q12809);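 note: peak tail current of the secondary pulse compared with the same well before compound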
Assay: primary screen, population patch clamp on CHO cells stably expressing hERG; higher = less effect of the substance
Among all 310,000 compounds or so, about 14,000 (4.5%) showed an effect of 50% or more. Effects have a minus sign here. Shown is part of a subset that was picked to be rich in strong results.
Experimental readout: hERG current change (%, negative = inhibition) at 10uM (%)
Report only the number, with the unit % understood.

Suppose we examine the molecule CCCCn1c(-c2csc(C(C)C)c2)n[nH]c1=S ; what hERG current change (%, negative = inhibition) at 10uM value has been reported?
20.9

Suppose we examine the molecule CCN(CC)CCCNC(=O)c1oc2ccc3c(c2c1C)C(O)CC(C)(C)O3 (centres unmarked) ; what hERG current change (%, negative = inhibition) at 10uM value has been reported?
-4.08

Suppose we examine the molecule C=CCN1C(=O)C(CC(=O)NCC)SC1=Nc1cc(Cl)ccc1Cl (centres unmarked) ; what hERG current change (%, negative = inhibition) at 10uM value has been reported?
-2.76

Suppose we examine the molecule Cn1c(-c2ccc(Cl)nc2)nc2cc(Cl)ccc21 ; what hERG current change (%, negative = inhibition) at 10uM value has been reported?
-9.09

Suppose we examine the molecule O=C(/C=C/c1ccc(Cl)cc1)NC(=S)N1C[C@H]2C[C@H](C1)c1cccc(=O)n1C2 ; what hERG current change (%, negative = inhibition) at 10uM value has been reported?
-53.1

// provenance: paper PMC4336329
